Tested on: Fibroblast
Assay: Multiplex assay against human fibroblast
Type: toxicity, cell-based
Conditions: 24 h, 1 µM, compound concentration 1 uM, replicate 2
experimental-endpoint: Population Normal (%)
Numbers only; they are read as %.

Answered cases to consult:
{"molecule": "C=CC(=O)Nc1cccc(Sc2nc(Nc3ccc(N4CCN(C)CC4)cc3)ncc2Cl)c1", "Population Normal (%)": 76}
{"molecule": "CC(C)NC(=O)N1CC[C@H](NC2=Nc3cc(F)ccc3N(CC(F)F)c3ccc(Cl)cc32)C1", "Population Normal (%)": 93}
{"molecule": "CC(C)CC(=O)Nc1[nH]nc2c1CN(C(=O)C1CCN(C)CC1)C2(C)C", "Population Normal (%)": 62}
{"molecule": "Cc1ccc2c(c1)c1c(n2CCc2ccc(C)nc2)CCN(C)C1 [LATREPIRDINE]", "Population Normal (%)": 86}
{"molecule": "COc1ccccc1CN[C@H]1C2CCN(CC2)[C@H]1C(c1ccccc1)c1ccccc1", "Population Normal (%)": 97}

Ask: GET /values?readout=Population Normal (%)&system=Fibroblast&item= Cc1cccc(CN2CCN(C(c3ccccc3)c3ccc(Cl)cc3)CC2)c1.Cl.Cl (stereo unspecified)
Reply: 89

Ask: Okay, and `Cc1ccc(C)c(Oc2ccncc2C(=O)N2CCN(C3CC3)c3ccccc32)c1` ?
Reply: 93

Ask: Okay, and `CC(C)OC(=O)N1CCC(Oc2ncnc3c2cnn3-c2ccc(S(C)(=O)=O)cc2F)CC1` ?
Reply: 97

Ask: Okay, and `C=CC(=O)Nc1cccc(Oc2nc(Nc3ccc(N4CCN(C)CC4)cc3OC)ncc2Cl)c1` ?
Reply: 62

Ask: Okay, and `COc1cc(Nc2nccc(-c3cnn4nc(OC)ccc34)n2)cc(C(F)(F)F)c1` ?
Reply: 97

Ask: Okay, and `CCc1ccc(OCc2ccccc2C(=O)Nc2ccc3nc(C)cc(N)c3c2)cc1.Cl` ?
Reply: 82

Ask: Okay, and `CNC(=O)Nc1ccc(-c2nc(N3CC4CCC(C3)O4)c3cnn(C4CCC5(CC4)OCCO5)c3n2)cc1` ?
Reply: 81

Ask: Okay, and `CCOC(=O)Nc1cc(-c2ccc(C)c(NS(C)(=O)=O)c2)nn2c(C)nnc12` ?
Reply: 68

###

Test system: U2OS
Experiment: Multiplex assay against U2OS
Type: toxicity, cell-based
Details: human, 48 h, 1 µM, compound concentration 1 uM, replicate 2
experimental-endpoint: Population Normal (%)
Numbers only; they are read as %.

{"molecule": "Cc1ccccc1C(c1ccccc1C)N1C2CCC1CC(O)(c1ccccc1)C2 (configuration not stated)", "system-tested": "U2OS", "Population Normal (%)": 97}
{"molecule": "CCc1ccc(OCc2ccccc2C(=O)Nc2ccc3nc(C)cc(N)c3c2)cc1.Cl", "system-tested": "U2OS", "Population Normal (%)": 71}
{"molecule": "Cc1ccc2c(c1)c1c(n2CCc2ccc(C)nc2)CCN(C)C1 [LATREPIRDINE]", "system-tested": "U2OS", "Population Normal (%)": 89}
{"molecule": "CC1=C(C(=O)Nc2cc3cn[nH]c3cc2F)C(c2ccc(C(F)(F)F)cc2)CC(=O)N1 (configuration not stated)", "system-tested": "U2OS", "Population Normal (%)": 95}
{"molecule": "Cc1c[nH]c2nccc(Oc3c(F)cc(Nc4cc(Cl)nc(N)n4)cc3F)c12", "system-tested": "U2OS", "Population Normal (%)": 99}

Ask: What does the record list as Population Normal (%) for `CC(C)(C)NC[C@H](O)COc1nsnc1N1CCOCC1` ?
Reply: 98

Ask: Okay, and `CC(C)Oc1ccccc1C(=O)Nc1ccccc1C(=O)Nc1cccc(S(=O)(=O)C(F)(F)F)c1` ?
Reply: 92

###

Tested on: Fibroblast
Assay: Multiplex assay against human fibroblast
Format: toxicity, cell-based
Settings: 12 h, 1 µM, compound concentration 1 uM, replicate 1
experimental-endpoint: Population Normal (%)
Numbers only; they are read as %.

{"molecule": "CCOC(=O)Nc1cc(-c2ccc(C)c(NS(C)(=O)=O)c2)nn2c(C)nnc12", "Population Normal (%)": 90}
{"molecule": "C[C@]12CC[C@@H]3c4ccc(O)cc4CC[C@H]3[C@@H]1CC[C@@H]2O", "Population Normal (%)": 78}
{"molecule": "CC(C)c1noc(N2CCC(COc3ccc(-c4ccc(S(C)(=O)=O)cc4)nc3)CC2)n1", "Population Normal (%)": 87}

Ask: What does the record list as Population Normal (%) for `O=c1cc(N2CCOCC2)oc2c(-c3cccc4c3sc3ccccc34)cccc12` ?
Reply: 86

Ask: Okay, and `COc1cc(Nc2nccc(-c3cnn4nc(OC)ccc34)n2)cc(C(F)(F)F)c1` ?
Reply: 78

Ask: Okay, and `CCc1ccc(OCc2ccccc2C(=O)Nc2ccc3nc(C)cc(N)c3c2)cc1.Cl` ?
Reply: 88

Ask: Okay, and Cc1ccccc1C(c1ccccc1C)N1C2CCC1CC(O)(c1ccccc1)C2 (centres undefined) ?
Reply: 84

Ask: Okay, and Cc1ccc2c(c1)c1c(n2CCc2ccc(C)nc2)CCN(C)C1 [LATREPIRDINE] ?
Reply: 84

Ask: Okay, and COc1cc2ncn(-c3cc(OCc4ccccc4C(F)(F)F)c(C(N)=O)s3)c2cc1OC [GW843682X] ?
Reply: 85

###

Here the recorded Population Mitochondria Different-Phenotype (%) is given for each entry.
Test system: HEK-293T
Assay: Multiplex assay against HEK293T
Type: toxicity, cell-based
Details: human, 12 h, 1 µM, compound concentration 1 uM, replicate 2
Numbers only; they are read as %.

{"compound": "Cl.O=C(O)c1cc(-c2ccc(C3CCNCC3)cc2)c2ccc(-c3ccc(C(F)(F)F)cc3)cc2c1", "test-value": 9}
{"compound": "Cc1ccc2c(c1)c1c(n2CCc2ccc(C)nc2)CCN(C)C1 [LATREPIRDINE]", "test-value": 64}
{"compound": "CCc1ccc(OCc2ccccc2C(=O)Nc2ccc3nc(C)cc(N)c3c2)cc1.Cl", "test-value": 93}
{"compound": "COc1ccccc1CN[C@H]1C2CCN(CC2)[C@H]1C(c1ccccc1)c1ccccc1 [CP-96345]", "test-value": 17}
{"compound": "CC(C)CC(=O)Nc1[nH]nc2c1CN(C(=O)C1CCN(C)CC1)C2(C)C [PHA-793887]", "test-value": 6}

Ask: What does the record list as Population Mitochondria Different-Phenotype (%) for `Cc1nc(N2CC[C@H](O)C2)ncc1-c1cc(C(F)(F)F)cc2[nH]ncc12` ?
Reply: 10

Ask: Okay, and `CNC(=O)Nc1ccc(-c2nc(N3CC4CCC(C3)O4)c3cnn(C4CCC5(CC4)OCCO5)c3n2)cc1` ?
Reply: 32

Ask: Okay, and `CC(C)Oc1ccccc1C(=O)Nc1ccccc1C(=O)Nc1cccc(S(=O)(=O)C(F)(F)F)c1` ?
Reply: 58

Ask: Okay, and CC1=C(C(=O)Nc2cc3cn[nH]c3cc2F)C(c2ccc(C(F)(F)F)cc2)CC(=O)N1 (configuration not stated) ?
Reply: 12

Ask: Okay, and `O=c1[nH]c2ccccc2n1C1CCN(Cc2ccc(-c3[nH]c4cc5ncnc5cc4nc3-c3ccccc3)cc2)CC1` ?
Reply: 23

Ask: Okay, and COC(=O)C1=C(C)NC(C)=C(C(=O)OCCCN2CCC(c3ccccc3)(c3ccccc3)CC2)[C@H]1c1cccc([N+](=O)[O-])c1 [NIGULDIPINE] ?
Reply: 100

Ask: Okay, and `C=CC(=O)Nc1cccc(Sc2nc(Nc3ccc(N4CCN(C)CC4)cc3)ncc2Cl)c1` ?
Reply: 44

###

System: HEK-293T
Test: Multiplex assay against HEK293T
Type: toxicity, cell-based
Conditions: human, 24 h, 1 µM, compound concentration 1 uM, replicate 1
Kindly return criterion met if reported Population Membrane Permeable-Phenotype (%) is no lower than 7%; return criterion not met if it is lower.

# example entries with known answers
{"molecule": "CCOC(=O)Nc1cc(-c2ccc(C)c(NS(C)(=O)=O)c2)nn2c(C)nnc12", "system-tested": "HEK-293T", "assigned-category": "criterion not met"}
{"molecule": "CNC(=O)Nc1ccc(-c2nc(N3CC4CCC(C3)O4)c3cnn(C4CCC5(CC4)OCCO5)c3n2)cc1", "system-tested": "HEK-293T", "assigned-category": "criterion met"}
{"molecule": "CC(C)Oc1ccccc1C(=O)Nc1ccccc1C(=O)Nc1cccc(S(=O)(=O)C(F)(F)F)c1", "system-tested": "HEK-293T", "assigned-category": "criterion not met"}
{"molecule": "CNC(=O)Nc1ccc2c(c1)[C@@]1(CC2)OC(=O)N(CC(=O)N(Cc2ccc(F)cc2)[C@@H](C)C(F)(F)F)C1=O [A-486]", "system-tested": "HEK-293T", "assigned-category": "criterion met"}
{"molecule": "Cc1nc(N2CC[C@H](O)C2)ncc1-c1cc(C(F)(F)F)cc2[nH]ncc12", "system-tested": "HEK-293T", "assigned-category": "criterion not met"}

Ask: Would you say C=CC(=O)Nc1ccc2[nH]c(=O)n(C3CCN(Cc4ccc(-c5nc6cc[nH]c(=O)c6cc5-c5ccccc5)cc4)CC3)c2c1 [Borussertib] shows Population Membrane Permeable-Phenotype (%) at minimum 7%?
Reply: criterion met

Ask: Okay, and `CC(C)NC(=O)N1CC[C@H](NC2=Nc3cc(F)ccc3N(CC(F)F)c3ccc(Cl)cc32)C1` ?
Reply: criterion not met
